assay: The drug is tested on Eubacterium rectale strain: ATCC33656 for biotransformation. The drug concentrations were measured before and after a 12-h incubation by liquid-chromatography-coupled mass spectrometry (LC–MS); conditions: agathobacter rectalis, 2 µM
parameter-measured: Bacterial Biotransformation

Example entries and their recorded answers appear below.
## Input Tell us which Bacterial Biotransformation value is on record for Nc1nc2ccc(OC(F)(F)F)cc2s1 [RILUZOLE]
## Output Compound NOT metabolized

## Input Tell us which Bacterial Biotransformation value is on record for CC(Oc1c(Cl)cccc1Cl)C1=NCCN1 (configuration not stated) [LOFEXIDINE]
## Output Compound metabolized

## Input Tell us which Bacterial Biotransformation value is on record for C=CC[C@@H]1/C=C(\C)C[C@H](C)C[C@H](OC)[C@H]2O[C@@](O)(C(=O)C(=O)N3CCCC[C@H]3C(=O)O[C@H](/C(C)=C/[C@@H]3CC[C@@H](O)[C@H](OC)C3)[C@H](C)[C@@H](O)CC1=O)[C@H](C)C[C@@H]2OC.O [TACROLIMUS]
## Output Compound metabolized

## Input Tell us which Bacterial Biotransformation value is on record for COC(=O)[C@H]1[C@H]2C[C@@H]3c4[nH]c5cc(OC)ccc5c4CCN3C[C@H]2C[C@@H](OC(=O)c2cc(OC)c(OC)c(OC)c2)[C@@H]1OC [RESERPINE]
## Output Compound NOT metabolized

## Input Tell us which Bacterial Biotransformation value is on record for CN1CCN2c3ccccc3Cc3ccccc3C2C1 (configuration not stated) [MIANSERIN]
## Output Compound NOT metabolized

Others:
## Input Tell us which Bacterial Biotransformation value is on record for C[C@@H](CO)NC(=O)[C@@H]1C=C2c3cccc4[nH]cc(c34)C[C@H]2N(C)C1.O=C(O)/C=C\C(=O)O [ERGONOVINE MALEATE]
## Output Compound NOT metabolized

## Input Tell us which Bacterial Biotransformation value is on record for COc1ccc2[nH]c([S+]([O-])Cc3ncc(C)c(OC)c3C)nc2c1 (configuration not stated) [OMEPRAZOLE]
## Output Compound metabolized
